System: Cryptococcus neoformans
Assay: Antifungal activity against Cryptococcus neoformans ATCC 208821 assessed as fungal growth inhibition incubated for 24 hrs by CLSI protocol based broth microdilution method
Type: functional
assay metric: MIC (µg/mL)
Respond numerically; units are µg/mL and should not be typed.

Example cases with answers are listed next.
COc1ccc2c(c1)C1(CCN(C(=O)/C=C/C(=O)Nc3ccc(Br)cc3)CC1)OC(=O)N2    64
COc1ccc2c(c1)C1(CCN(C(=O)C(O)C(O)C(=O)Nc3ccc(Br)cc3)CC1)OC(=O)N2 (stereo not given)    512
COc1cc(Br)c(NC(=O)/C=C/C(=O)N2CCC3(CC2)OC(=O)Nc2ccc(OC)cc23)c(Br)c1    64
COc1ccc2c(c1)C1(CCN(C(=O)/C=C/C(=O)Nc3ccc(F)c(Cl)c3)CC1)OC(=O)N2    64
COc1ccc2c(c1)C1(CCN(C(=O)/C=C/C(=O)Nc3cccc([N+](=O)[O-])c3)CC1)OC(=O)N2    256

[ask] Query for Cryptococcus neoformans: what MIC does the record show for COc1ccc2c(c1)C1(CCN(C(=O)/C=C/C(=O)Nc3ccccc3[N+](=O)[O-])CC1)OC(=O)N2 ?
[reply] 256

[ask] Query for Cryptococcus neoformans: what MIC does the record show for COc1cccc(NC(=O)/C=C/C(=O)N2CCC3(CC2)OC(=O)Nc2ccc(OC)cc23)c1 ?
[reply] 64

[ask] Query for Cryptococcus neoformans: what MIC does the record show for OC(Cn1cncn1)(Cn1cncn1)c1ccc(F)cc1F [FLUCONAZOLE] ?
[reply] 32

---

The compounds listed here are annotated with their inhibition.
Test system: Candida tropicalis
Assay: Inhibition of Candida tropicalis ATCC 750 chitin synthase using UDP-GlcNAc as substrate at 300 ug/ml incubated for 1 hrs by absorbance based assay relative to control
Details: dose 300.0 µg/ml
Respond numerically; units are % and should not be typed.

Example cases with answers are listed next.
COc1cccc(NC(=O)/C=C/C(=O)N2CCC3(CC2)OC(=O)Nc2ccc(OC)cc23)c1    37
COc1ccc2c(c1)C1(CCN(C(=O)/C=C/C(=O)Nc3ccc([N+](=O)[O-])cc3OC)CC1)OC(=O)N2    86
COc1ccc2c(c1)C1(CCN(C(=O)C(O)C(O)C(=O)Nc3ccc(Br)cc3)CC1)OC(=O)N2 (centres undefined)    43

[ask] Please report the recorded inhibition for NC(=O)OC[C@H](O)[C@@H](O)[C@H](N)C(=O)N[C@H](C(=O)O)[C@H]1O[C@@H](n2cc(CO)c(=O)[nH]c2=O)[C@H](O)[C@@H]1O [POLYOXIN B] .
[reply] 85

---

System: Aspergillus flavus
Experiment: Antifungal activity against Aspergillus flavus ATCC 16870 assessed as fungal growth inhibition incubated for 24 hrs by CLSI protocol based broth microdilution method
Type: functional
assay metric: MIC (µg/mL)
Respond numerically; units are µg/mL and should not be typed.

Example cases with answers are listed next.
COc1ccc2c(c1)C1(CCN(C(=O)/C=C/C(=O)Nc3ccc(Cl)cc3)CC1)OC(=O)N2    256
COc1ccc2c(c1)C1(CCN(C(=O)CC(=O)Nc3ccccc3)CC1)OC(=O)N2    256
COc1ccc(NC(=O)/C=C/C(=O)N2CCC3(CC2)OC(=O)Nc2ccc(OC)cc23)cc1    64

[ask] Please report the recorded MIC for COc1ccc2c(c1)C1(CCN(C(=O)/C=C/C(=O)Nc3ccc(F)c(Cl)c3)CC1)OC(=O)N2 .
[reply] 16

---

The compounds listed here are annotated with their MIC.
Tested on: Candida albicans
Experiment: Antifungal activity against micafungin-resistant Candida albicans ATCC 76615R assessed as fungal growth inhibition
Type: functional
*1 amine or outer side, *2 acyl side, *3 side chain or, on linkers, in order; H or OH if unused. Where a SMILES comes first, the peptide text is derived from it. Bridges are numbered along the chain shown (N, C = ends). [ ]: non-standard residue; d: D form. The star is where a group is joined. hTyr(3S-OH,4S-OH,3'-OSO3H) = N[C@H](C(=O)O)[C@H](O)[C@@H](O)c1ccc(O)c(OS(=O)(=O)O)c1; Orn(4R-OH,5R-OH) = O=C([C@H](C[C@@H](O)[C@@H](O)N[*:3])N[*:1])[*:2]; Pro(3S-OH,4S-Me) = C[C@H]1CN[C@H](C(=O)O)[C@H]1O; X1 = CCCCCOc1ccc(-c2cc(-c3ccc(C(=O)*)cc3)no2)cc1; Gln(3R-OH) = NC(=O)C[C@@H](O)[C@H](N)C(=O)O; Hyp = O=C(O)[C@@H]1C[C@@H](O)CN1
Respond numerically; units are µg/mL and should not be typed.

Example cases with answers are listed next.
COc1ccc2c(c1)C1(CCN(C(=O)/C=C/C(=O)Nc3ccc(F)c(Cl)c3)CC1)OC(=O)N2    64
COc1cc(Br)c(NC(=O)/C=C/C(=O)N2CCC3(CC2)OC(=O)Nc2ccc(OC)cc23)c(Br)c1    64
COc1ccc2c(c1)C1(CCN(C(=O)/C=C/C(=O)Nc3ccc(Br)cc3)CC1)OC(=O)N2    32

API: the following record is the query input.
[ask] Query for Candida albicans: what MIC does the record show for CCCCCOc1ccc(-c2cc(-c3ccc(C(=O)N[C@H]4C[C@@H](O)[C@@H](O)NC(=O)[C@@H]5[C@@H](O)[C@@H](C)CN5C(=O)[C@H]([C@H](O)CC(N)=O)NC(=O)[C@H]([C@H](O)[C@@H](O)c5ccc(O)c(OS(=O)(=O)O)c5)NC(=O)[C@@H]5C[C@@H](O)CN5C(=O)[C@H]([C@@H](C)O)NC4=O)cc3)no2)cc1 [MICAFUNGIN] (X1-[Orn(4R-OH,5R-OH)]T[Hyp][hTyr(3S-OH,4S-OH,3'-OSO3H)][Gln(3R-OH)][Pro(3S-OH,4S-Me)]; lactam 1-C) ?
[reply] 256

---

System: Cryptococcus neoformans
Assay: Antifungal activity against Cryptococcus neoformans ATCC 208821 assessed as fungal growth inhibition incubated for 24 hrs by CLSI protocol based broth microdilution method
Assay type: functional
The molecules listed here are annotated with their MIC.

[ask] Please report the recorded MIC for COc1ccc(NC(=O)C(O)C(O)C(=O)N2CCC3(CC2)OC(=O)Nc2ccc(OC)cc23)cc1 (stereo not drawn) .
[reply] > 512 µg/mL

---

The molecules listed here are annotated with their MIC.
System: Cryptococcus neoformans
Assay: Antifungal activity against Cryptococcus neoformans ATCC 208821 assessed as fungal growth inhibition incubated for 24 hrs by CLSI protocol based broth microdilution method
Assay type: functional

COc1ccc2c(c1)C1(CCN(C(=O)/C=C/C(=O)Nc3ccccc3)CC1)OC(=O)N2    64 µg/mL
COc1ccc2c(c1)C1(CCN(C(=O)/C=C/C(=O)Nc3ccc(C(F)(F)F)cc3)CC1)OC(=O)N2    256 µg/mL

API: the following record is the query input.
[ask] Please report the recorded MIC for COc1ccc2c(c1)C1(CCN(C(=O)C(O)C(O)C(=O)Nc3ccc(C)cc3)CC1)OC(=O)N2 (stereo not drawn) .
[reply] > 512 µg/mL

---

The molecules listed here are annotated with their inhibition.
Tested on: Candida tropicalis
Experiment: Inhibition of Candida tropicalis ATCC 750 chitin synthase using UDP-GlcNAc as substrate at 300 ug/ml incubated for 1 hrs by absorbance based assay relative to control
Conditions: dose 300.0 µg/ml
Respond numerically; units are % and should not be typed.

Example cases with answers are listed next.
COc1ccc2c(c1)C1(CCN(C(=O)CCC(=O)Nc3ccc(Br)cc3)CC1)OC(=O)N2    23
COc1ccc2c(c1)C1(CCN(C(=O)CC(=O)Nc3ccccc3)CC1)OC(=O)N2    16
COc1ccc2c(c1)C1(CCN(C(=O)/C=C/C(=O)Nc3ccccc3Cl)CC1)OC(=O)N2    36
COc1cc(Br)c(NC(=O)/C=C/C(=O)N2CCC3(CC2)OC(=O)Nc2ccc(OC)cc23)c(Br)c1    72

[ask] Please report the recorded inhibition for COc1ccc2c(c1)C1(CCN(C(=O)CC(=O)Nc3ccc(C)cc3)CC1)OC(=O)N2 .
[reply] 13

[ask] Please report the recorded inhibition for COc1ccc2c(c1)C1(CCN(C(=O)C(O)C(O)C(=O)Nc3ccc(C)cc3)CC1)OC(=O)N2 (centres undefined) .
[reply] 43

[ask] Please report the recorded inhibition for COc1ccc2c(c1)C1(CCN(C(=O)/C=C/C(=O)Nc3ccc(C(F)(F)F)cc3)CC1)OC(=O)N2 .
[reply] 15

[ask] Please report the recorded inhibition for COc1ccc2c(c1)C1(CCN(C(=O)/C=C/C(=O)Nc3ccccc3OC)CC1)OC(=O)N2 .
[reply] 60

[ask] Please report the recorded inhibition for COc1ccc2c(c1)C1(CCN(C(=O)/C=C/C(=O)Nc3ccc([N+](=O)[O-])cc3)CC1)OC(=O)N2 .
[reply] 13

---

Test system: Candida tropicalis
Assay: Inhibition of Candida tropicalis ATCC 750 chitin synthase using UDP-GlcNAc as substrate at 300 ug/ml incubated for 1 hrs by absorbance based assay relative to control
Details: dose 300.0 µg/ml
The molecules listed here are annotated with their inhibition.

COc1ccc2c(c1)C1(CCN(C(=O)/C=C/C(=O)Nc3ccc(C(F)(F)F)cc3C(F)(F)F)CC1)OC(=O)N2    30%

[ask] Please report the recorded inhibition for COc1ccc2c(c1)C1(CCN(C(=O)/C=C/C(=O)Nc3ccc(F)c(Cl)c3)CC1)OC(=O)N2 .
[reply] 70%

[ask] Please report the recorded inhibition for COc1ccc(NC(=O)/C=C/C(=O)N2CCC3(CC2)OC(=O)Nc2ccc(OC)cc23)cc1 .
[reply] 82%

[ask] Please report the recorded inhibition for COc1ccc2c(c1)C1(CCN(C(=O)/C=C/C(=O)Nc3cccc([N+](=O)[O-])c3)CC1)OC(=O)N2 .
[reply] 34%
